- ASSAY: In vitro human hepatocytes clearance assay
- SETUP CONDITIONS: both, human, cryopreserved human hepatocytes (suspension), human hepatocytes Clint (µL/min/10^6cells), mixed gender human hepatocytes, incubation up to 100 min
Where a name gives a salt, the structure may show the parent alone.
Kindly state hepatocyte CLint at 1 µM for each of the entries shown.
Please answer in the form of a number followed by its unit of measurement.

{"columns": ["COMPOUND", "hepatocyte CLint at 1 µM"],
 "data": [
  ["C=CC(=O)Nc1cc(Nc2ncnc(Nc3cc(Cl)c(F)cc3C(C)(C)O)n2)c(OC)cc1N1CC[C@@H](N(C)C)C1 [Compound 33]", "2.77 µL/min/1e6 cells"],
  ["C=CC(=O)Nc1cc(Nc2ncnc(Nc3cc(Cl)c(F)cc3C(C)(C)O)n2)c(OC)cc1N1C[C@@H](F)[C@@H](N(C)C)C1 [Compound 93]", "5.01 µL/min/1e6 cells"],
  ["C=CC(=O)Nc1cc(Nc2ncnc(Nc3cc(Cl)c(F)cc3C(C)(C)O)n2)c(OC)cc1N1CC[C@@H](NC)C1 [Compound 73]", "1.1 µL/min/1e6 cells"],
  ["C=CC(=O)Nc1cc(Nc2nccc(Nc3cc(Cl)c(F)cc3C(C)(C)O)n2)c(OC)cc1N1C[C@H]2CN(C)[C@H]2C1 [Compound 89, formic acid salt]", "3.84 µL/min/1e6 cells"],
  ["C=CC(=O)Nc1cc(Nc2ncnc(Nc3cc(Cl)c(Cl)cc3C(C)(C)O)n2)c(OC)cc1N1CC[C@@H](N(C)C)C1 [Compound 61]", "2.71 µL/min/1e6 cells"]
]}

C=CC(=O)Nc1cc(Nc2nccc(Nc3cc(Cl)c(F)cc3C(C)(C)O)n2)c(OC)cc1N1CC[C@@H]1CN(C)C [Compound 53] yielded hepatocyte CLint at 1 µM of 4.04 µL/min/1e6 cells
